Tested on: CC-B
ASSAY TEXT: Relative transcriptional activation activity relative to t-RA
Format: functional, Homo sapiens
OBSERVED PROPERTY: Relative activity

MOLECULE: CCOC(=O)c1ccc(/C=C(\C)c2ccc3c(c2)C(C)(C)CCO3)cc1
SUBJECT OF TEST: CC-B
OBSERVED PROPERTY: Relative activity
REPORTED RESULT: 35.7
--
MOLECULE: C/C(=C\c1ccc(C(=O)O)cc1)c1ccc2c(c1)C(C)(C)CS2
SUBJECT OF TEST: CC-B
OBSERVED PROPERTY: Relative activity
REPORTED RESULT: 56
--
MOLECULE: CC(/C=C/C=C(\C)c1ccc2c(c1)C(C)(C)CS2)=C\C(=O)O
SUBJECT OF TEST: CC-B
OBSERVED PROPERTY: Relative activity
REPORTED RESULT: 50
--
MOLECULE: CCOC(=O)c1ccc(OC(=O)c2ccc3c(c2)C(C)(C)CCO3)cc1
SUBJECT OF TEST: CC-B
OBSERVED PROPERTY: Relative activity
REPORTED RESULT: 40
--
MOLECULE: COC(=O)c1ccc(C(=O)Oc2c(C)cc3c(c2C)C(C)(C)CC(=O)O3)cc1
SUBJECT OF TEST: CC-B
OBSERVED PROPERTY: Relative activity
REPORTED RESULT: 29
--
MOLECULE: C/C(=C\c1ccc(C(=O)O)cc1)c1ccc2c(c1)C(C)(C)CCO2
SUBJECT OF TEST: CC-B
OBSERVED PROPERTY: Relative activity
REPORTED RESULT: 31
--
MOLECULE: C/C(=C\c1ccc(C(=O)O)cc1)c1ccc2c(c1)C(C)(C)CO2
SUBJECT OF TEST: CC-B
OBSERVED PROPERTY: Relative activity
REPORTED RESULT: 46
--
MOLECULE: CCOC(=O)c1ccc(/C=C(\C)c2ccc3c(c2)C(C)(C)CCS3)cc1
SUBJECT OF TEST: CC-B
OBSERVED PROPERTY: Relative activity
REPORTED RESULT: 51
--
MOLECULE: CCCCCCCCC1CCc2cc(/C(C)=C/c3ccc(C(=O)OCC)cc3)ccc2S1 (stereo not given)
SUBJECT OF TEST: CC-B
OBSERVED PROPERTY: Relative activity
REPORTED RESULT: 43
--
MOLECULE: CC(/C=C/C=C(\C)c1ccc2c(c1)C(C)(C)CCO2)=C\C(=O)O
SUBJECT OF TEST: CC-B
OBSERVED PROPERTY: Relative activity
REPORTED RESULT: 50

meta.source: ChEMBL document CHEMBL1130202
